Each entry below carries its reported koff.
ASSAY SYSTEM: T1, biotinylated human BCMA-Fc, Avitag recombinant protein (ACRO Biosystems, #BC7-H82F0) (human, UniProt Q02223 1-54, biotinylated)
T1 construct: extracellular domain; Bought protein; also called human BCMA protein; recombinant human BCMA-ECD-Fc; not shown: Fc of the bought fusion protein; Avitag
T1 sequence (looked up): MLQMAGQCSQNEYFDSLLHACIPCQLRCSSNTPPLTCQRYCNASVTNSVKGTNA
TEST NAME: BLI (Octet Red96e), biotinylated BCMA-Fc on SA sensor, VH supernatant, 100 nM, single concentration
PROPERTY MEASURED: koff (s⁻¹)

INSERT INTO assay_data (binder, observed) VALUES
  ('PR004560, PR001046 VH-derived single-domain variant 1046-R2-10F1 (VHH, Tested as VH single domain with Flag and His tags; not shown: Flag and His tags) VHH: EVQLVETGGGLIQPGGSLRLSCAASGFTVSDAYMTWVRQAPGKGLEWVSVIFSGGNTYVSDSVKGRFTISRDNAKNTLYLQMNSLRAEDTALYYCARRNYDQTRGTDVFDIWGQGTMVTVSS', 0.000301),
  ('PR004570, PR001046 VH-derived single-domain variant 1046-R2-6D6 (VHH, Tested as VH single domain with Flag and His tags; not shown: Flag and His tags) VHH: EVQLVETGGGLIQPGGSLRLSCAASGFTVSDAYMTWVRQAPGKGLEWVSVIFSGGRTYYADSVKGRFTISRDNAKNTLYLQMNSLRAEDTALYYCARRNYDQTRGTDVFDIWGQGTMVTVSS', 0.000234);
